tested on: LTK; conditions: concentration: 1 μM,replicates: in singlicate; n = 1
EXPERIMENTAL_READOUT: %Inh (%)
Provide only the numeric value, understood in %.

%Inh reading for CS(=O)(=O)Nc1ccc(-c2ccnc3[nH]ccc23)cc1 [GSK993273] : 0

%Inh reading for O=c1[nH]cc(-c2ccc(O)cc2)c2sc(-c3ccncc3)cc12 [GSK1033723] : 0

%Inh reading for O=C(Nc1cccc(Oc2ccc3nccn3n2)c1)Nc1cccc(C(F)(F)F)c1 : 0

%Inh reading for NC(=O)c1ccc(-c2cc3ncnc(SCC(=O)O)c3s2)cc1 : 0

%Inh reading for C[C@@H](Oc1cc(-n2cnc3ccc(-c4ccncc4)cc32)sc1C(N)=O)c1ccccc1Cl [GSK483724] : 25

%Inh reading for CN(c1ccc2c(c1)nc(NCc1ccc(F)cc1)n2C)c1ccnc(Nc2ccc(CS(C)(=O)=O)cc2)n1.Cl [GW813244] : 48

%Inh reading for CS(=O)(=O)c1cccc(CNc2nc(Nc3ccc4c(c3)[C@@H]3C[C@@H]4CNC3=O)ncc2C(F)(F)F)c1 : 5

%Inh reading for Cc1cccc2c(-c3ccncc3)c(-c3ccc(F)cc3)nn12.Cl [GW461487] : 100

%Inh reading for O=C(NCC1CC1)c1ccc(-c2cc(C(=O)NC3CC3)ccc2F)cc1 [GW810445] : 28

%Inh reading for O=C(Nc1n[nH]c2cc(-c3ccco3)ccc12)C1CC1 [SB-737447] : 0

%Inh reading for CCN1CCN(CCCC(=O)Nc2n[nH]c3nc(-c4ccc(O)cc4)c(Br)cc23)CC1 [SB-731579] : 20

%Inh reading for Cc1ccn2nc(-c3ccc(F)cc3)c(-c3ccncc3)c2c1.Cl [GW457859] : 0

%Inh reading for CCCC(=O)Nc1n[nH]c2ncccc12 [SB-601436] : 4

%Inh reading for Cn1cc(-c2cccc3c(N)c(C(N)=O)nnc23)cn1 : 29

%Inh reading for COc1cccc(C2=C(Nc3cccc(Cl)c3)C(=O)NC2=O)c1 [SB-341556] : 86

%Inh reading for C[C@@H]1CNc2c(sc3ccc4nc(-c5ccc(O)cc5)ccc4c23)C(=O)N1 : 83

%Inh reading for COC(=O)c1cccc(NC(=O)NC2CCN(c3ccnc(Nc4cc(OC)c(OC)c(OC)c4)n3)C2)c1 (stereo not drawn) [GSK1379767] : 83

%Inh reading for COc1ccc(Nc2nccc(N3CCC(NC(=O)c4cccc(C#N)c4)C3)n2)cc1 (stereo not drawn) [GSK1379730] : 0

###

system: LTK; details: concentration: 1 μM,replicates: in singlicate; n = 1;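 also: KINOMEscan kinase panel screen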
Record form. Attribute: %Inh. Fill in for each entry.
Number first, unit second.

Readout %Inh for Cn1ccc2ncnc(Oc3ccc(NC(=O)Nc4cccc(C(F)(F)F)c4)c(F)c3)c21 , test system LTK, was 84%

Readout %Inh for COC(=O)c1cccc(NC(=O)NC2CCN(c3ccnc(NCc4ccc(F)cc4)n3)CC2)c1 [GSK1379860] , test system LTK, was 0%

Readout %Inh for Cl.c1ccc(Oc2ccc(Nc3ccnc4cc(-c5ccc(CN6CCNCC6)o5)ccc34)cc2)nc1 [GW567142] , test system LTK, was 0%

Readout %Inh for Nc1nccc(-c2ccc3c(N)n[nH]c3c2)n1 [GSK1034945] , test system LTK, was 8%
